Every entry's value here was drawn from ChEMBL document CHEMBL1155868.

# measured_target: Sodium-dependent noradrenaline transporter (Homo sapiens)
measurement_label: pIC50
Note: pIC50 values are expressed as the negative base-10 logarithm of concentration in M.

Illustrative cases are given below, each with its answer.
1) CCC(=O)N(Cc1ccc(Cl)cc1Cl)[C@H]1CCNC1: 7.22
2) CCCC(=O)N(Cc1ccc(Cl)cc1Cl)[C@H]1CCNC1: 7.51
3) O=C(C1CCC1)N(Cc1ccc(Cl)cc1Cl)[C@H]1CCNC1: 7.19

Consider the compound CC(C)C(=O)N(Cc1ccccc1Cl)[C@H]1CCNC1 and give its measured pIC50. 6.94

====

# assay_method_text: Dissociation constant, pKa of the compound
# Format: physicochemical
measurement_label: pKa
API doc: respond with a numeric literal and nothing else, no unit.

Look up pKa for this molecule: CC(C)C(=O)N(Cc1cccc(Cl)c1Cl)[C@H]1CCNC1 9.4

====

# assay_method_text: Metabolic stability assessed as half life in human liver microsomes
# Type: ADME, Microsome
measurement_label: half-life

Known half-life results, listed for orientation:
1. CC(C)C(=O)N(Cc1cccc(Cl)c1Cl)[C@H]1CCNC1: > 2 h
2. CC(C)C(=O)N(Cc1ccc(Cl)cc1Cl)[C@H]1CCNC1: > 2 h

--- query ---
# input compound: CC(C)C(=O)N(Cc1ccc(Cl)c(Cl)c1Cl)[C@H]1CCNC1 ; wanted: its half-life > 2 h

====

Data export: pIC50 values recorded with Sodium-dependent noradrenaline transporter (Homo sapiens, UniProt P23975).
Sequence (P23975 whole entry): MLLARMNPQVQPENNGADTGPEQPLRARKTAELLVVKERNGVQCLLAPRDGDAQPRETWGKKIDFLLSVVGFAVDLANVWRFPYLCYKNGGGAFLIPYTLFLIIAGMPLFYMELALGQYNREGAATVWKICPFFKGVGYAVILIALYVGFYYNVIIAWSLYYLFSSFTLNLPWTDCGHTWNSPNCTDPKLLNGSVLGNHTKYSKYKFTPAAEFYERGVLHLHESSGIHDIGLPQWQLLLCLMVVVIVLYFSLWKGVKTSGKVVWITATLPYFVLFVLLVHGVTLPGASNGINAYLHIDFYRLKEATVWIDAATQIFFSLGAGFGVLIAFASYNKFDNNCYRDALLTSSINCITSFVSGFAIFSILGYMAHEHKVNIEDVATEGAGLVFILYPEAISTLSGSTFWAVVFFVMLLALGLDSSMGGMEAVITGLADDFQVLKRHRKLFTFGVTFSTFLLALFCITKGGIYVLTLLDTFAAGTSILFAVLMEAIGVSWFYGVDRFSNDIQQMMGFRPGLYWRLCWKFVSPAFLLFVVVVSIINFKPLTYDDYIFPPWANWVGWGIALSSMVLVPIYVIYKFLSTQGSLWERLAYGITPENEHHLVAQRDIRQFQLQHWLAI
Here pIC50 is given on a logarithmic scale as minus log10 of the concentration in mol/L.

Consider the following illustrative entries.
1. CCCCC(=O)N(Cc1ccc(Cl)cc1Cl)[C@H]1CCNC1: 7.15
2. CC(C)CC(=O)N(Cc1ccc(Cl)cc1Cl)[C@H]1CCNC1: 7.51
3. CC(C)C(=O)N(Cc1ccc(Cl)cc1Cl)[C@H]1CCNC1: 7.55

Moving on to the next molecule.
Could you tell me which pIC50 is on file for CC(C)C(=O)N(Cc1cc(Cl)cc(Cl)c1Cl)[C@H]1CCNC1 ? 7.54

====

# assay_method_text: Clearance in dog at 0.01 mg/kg, iv
# Type: ADME, organism-based, Canis lupus familiaris
# Parameters: dose 0.01 mg/kg, route intravenous
# assay_conditions: in vivo
measurement_label: clearance (mL/min/kg)
Entry rule: numbers only, all in mL/min/kg.

Entry CC(C)C(=O)N(Cc1cccc(Cl)c1Cl)[C@H]1CCNC1 : reported clearance = ? 1.1

====

# measured_target: Cytochrome P450 3A4 (Homo sapiens, UniProt P08684)
# Sequence (P08684 whole entry): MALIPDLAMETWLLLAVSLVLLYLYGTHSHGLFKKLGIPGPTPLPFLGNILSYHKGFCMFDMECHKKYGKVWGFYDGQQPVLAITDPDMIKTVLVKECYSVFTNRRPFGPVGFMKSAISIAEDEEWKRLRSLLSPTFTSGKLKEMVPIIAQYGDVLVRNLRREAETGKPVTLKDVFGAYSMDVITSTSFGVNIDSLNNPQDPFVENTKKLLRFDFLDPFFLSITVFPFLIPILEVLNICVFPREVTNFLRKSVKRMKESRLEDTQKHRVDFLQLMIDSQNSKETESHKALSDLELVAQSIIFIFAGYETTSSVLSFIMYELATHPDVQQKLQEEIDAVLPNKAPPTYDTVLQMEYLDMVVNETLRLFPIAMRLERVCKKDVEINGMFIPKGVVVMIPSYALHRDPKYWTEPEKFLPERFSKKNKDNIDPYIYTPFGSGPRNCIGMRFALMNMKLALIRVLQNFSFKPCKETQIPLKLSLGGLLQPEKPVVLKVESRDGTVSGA
measurement_label: pIC50
The quantity pIC50 is defined as the negative base-10 logarithm of the molar concentration.

Dear colleague, I am looking for the recorded pIC50 of the following molecule: CC(C)C(=O)N(Cc1cccc(Cl)c1Cl)[C@H]1CCNC1 4.75

====

# assay_method_text: Half life in dog at 0.01 mg/kg, iv
# Format: ADME, organism-based, Canis lupus familiaris
# Design: dose 0.01 mg/kg, route intravenous
# assay_conditions: in vivo
measurement_label: half-life (h)
Please state the figure in h; there is no need to write the unit.

Requested field: half-life. Item: CC(C)C(=O)N(Cc1cccc(Cl)c1Cl)[C@H]1CCNC1 5.7

====

# assay_method_text: Bioavailability in dog at 0.013 mg/kg, po
# Assay type: ADME, organism-based, Canis lupus familiaris
# assay_conditions: in vivo
measurement_label: bioavailability (%)
Record the value in %, omitting the unit from your answer.

Requested read-out: bioavailability. Entry: CC(C)C(=O)N(Cc1cccc(Cl)c1Cl)[C@H]1CCNC1 91
